These entries and their values trace back to PubChem BioAssay (NCATS).

For each of the molecules below, state its max response.
Assay: qHTS Assay for Lipid Storage Modulators (AID 1519)
Conditions: Drosophila S3 cells, BODIPY lipid droplet/cell ratio, laser cytometry; measured here: cell count channel max response; cells loaded with oleic acid
Description: NIH Molecular Libraries Probe Production Centers Network [MLPCN] NIH Chemical Genomics Center [NCGC] Assay Submitter (PI): Beller, Mathias; Max-Planck-Institut fur Biophysikalische Chemie […] We dispensed 4 uL of cells at 1.25 x 10^6 cells/mL into LoBase Aurora COC 1,536-well plates (black walled, clear bottom) with a bottle-valve solenoid-based dispenser (Aurora) to obtain 5,000 cells/well. […] The ratio of the total intensity in PMT channel 1 over total intensity of channel 3 was also calculated. […]
Inconclusive results are not listed.
One number for each entry, in %.

The following molecules have reported results that may help.
Molecule: CCOC(=O)C1=C(C)NC(C)=C(C(=O)OC)[C@@H]1c1cccc([N+](=O)[O-])c1
Result: -15

Molecule: C/C=C(\C)C(=O)OC1[C@@H]2C=C3C4CC(=O)OC(c5ccoc5)[C@]4(C)CCC3[C@@](C)(C2=O)C(C(O)C(=O)OC)C1(C)C (some centres not stated)
Result: 8.66

Molecule: COc1ccc(CC(=O)c2ccc(O)cc2O)cc1
Result: -22.7

Molecule: COc1c(O)cc2c(-c3ccccc3)cc(=O)oc2c1OC
Result: 6.33

Molecule: O=c1ccn([C@H]2C[C@H](O)[C@@H](CO)O2)c(=O)[nH]1
Result: 9.77

For every item in the list below, what is its measured max response?
1. OCC1OC([S-])[C@H](O)C(O)C1O.[Au+] (some centres not stated)
2. COC1C=CO[C@@]2(C)Oc3c(C)c(O)c4c(O)c(c(C=NN5CCN(C)CC5)c(O)c4c3C2=O)NC(=O)/C(C)=C\C=CC(C)C(O)[C@@H](C)C(O)C(C)[C@H](OC(C)=O)C1C (some centres not stated)

Given back:
5.52
7.61

For every item in the list below, what is its measured max response?
1. CC(C)C(C)/C=C/C(C)C1CCC2C3=CCC4CC(=O)CC[C@@]4(C)C3CC[C@]21C (some centres not stated)
2. CN1CCCN=C1/C=C\c1cccs1
3. COc1ccc(-c2cc(=O)c3c(O)c(OC)c(OC)c(OC)c3o2)cc1
4. CN(C)CCOC(=O)[C@@H](c1ccccc1)C1(O)CCCC1
5. CC1(C)O[C@H]2C[C@@H]3[C@H]4CCC5=CC(=O)CC[C@@]5(C)[C@]4(F)[C@@H](O)C[C@@]3(C)[C@@]2(C(=O)CCl)O1
6. Nc1nc2c(ncn2C2OC(CO)CC2O)c(=O)[nH]1 (configuration not stated)
7. Nc1ccn([C@@H]2CC[C@H](CO)O2)c(=O)n1

Given back:
-0.92
-6.05
14.3
2.88
-11.4
3.55
-4.3

For every item in the list below, what is its measured max response?
1. Nc1ncnc2nc(Cl)[nH]c12
2. C=C1CCC2C(CC2(C)C)C(=C)CC/C1=N/O (configuration not stated)
3. C/C1=C2N=C(/C=C3N=C(/C(C)=C4\[N-]C(C)(C5N=C1C(C)(CCC(=O)NCC(C)OP(=O)([O-])O[C@H]1C(O)C(n6cnc7cc(C)c(C)cc76)O[C@@H]1CO)C5CC(N)=O)C(C)(CC(N)=O)C4CCC(N)=O)C(C)(CC(N)=O)C\3CCC(N)=O)C(C)(C)C/2CCC(N)=O.[CH2-]C1OC(n2cnc3c(N)ncnc32)C(O)C1O.[Co] (some centres not stated)
4. Cc1ccccc1OC[C@H](O)CO
5. CC/C=C\C[C@H]1C(=O)CC[C@@H]1CC(=O)O
6. N[C@H](Cc1ccc(O)cc1)C(=O)O

Given back:
[-7.94, 4.09, 22.1, -3.4, -8.93, -25.6]

For every item in the list below, what is its measured max response?
1. CC(C)(C)NC(=O)[C@@H]1C[C@H]2CCCC[C@@H]2CN1C[C@H](O)[C@H](Cc1ccccc1)NC(=O)[C@@H](CC(N)=O)NC(=O)c1ccc2ccccc2n1
2. CC12CCC3c4ccc(OCc5ccccc5)cc4CCC3C1CC(O)C2O (configuration not stated)

Given back:
1.41
2.78

###

Target: Cytochrome P450 3A4 (Homo sapiens) (UniProt P08684)
Sequence (P08684 whole entry, looked up): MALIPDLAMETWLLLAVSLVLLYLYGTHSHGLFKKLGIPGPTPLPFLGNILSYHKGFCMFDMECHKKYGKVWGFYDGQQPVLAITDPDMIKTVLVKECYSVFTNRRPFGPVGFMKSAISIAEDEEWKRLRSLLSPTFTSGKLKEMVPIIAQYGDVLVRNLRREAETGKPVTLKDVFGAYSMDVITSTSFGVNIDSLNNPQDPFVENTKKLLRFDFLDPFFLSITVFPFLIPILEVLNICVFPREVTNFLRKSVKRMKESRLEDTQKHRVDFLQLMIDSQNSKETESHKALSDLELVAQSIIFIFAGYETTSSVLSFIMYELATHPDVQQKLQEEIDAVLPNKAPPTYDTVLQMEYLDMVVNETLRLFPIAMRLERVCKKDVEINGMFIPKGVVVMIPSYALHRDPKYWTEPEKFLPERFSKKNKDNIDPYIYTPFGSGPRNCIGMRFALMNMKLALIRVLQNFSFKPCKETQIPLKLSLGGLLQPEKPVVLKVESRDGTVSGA
Test: qHTS Assay for Inhibitors and Substrates of Cytochrome P450 3A4 (AID 884); note: nearly all actives have a fitted effect of over 50% in size
Details: recombinant CYP3A4, Luciferin-PPXE luminescence; series mostly up to 57.1 µM
Experimental: NIH Molecular Libraries Screening Centers Network [MLSCN] NIH Chemical Genomics Center [NCGC] The P450 gene superfamily is involved in the metabolism and clearance of xenobiotics. […] The luciferin is then measured by luminescence after the addition of a luciferase detection reagent. […] Inhibitors and some substrates limit the production of luciferin, and decrease measured luminescence. […]
Records with an inconclusive call do not appear. Activity calls are given as the source filed them. The call rests on the fitted dose curve; in most records, active means well fitted inhibition curve with a large enough effect; inconclusive means small, poorly fitted or top-dose-only effect; inactive means no such curve, though single readings can be large or run the other way.
Choose one outcome from this list and give only that: Y (active), N (inactive)

Use these answered entries as a reference point.
Compound: COC(=O)CC1C(C)(C)C(O)C2CC3=C4CC(O)OC(c5ccoc5)[C@]4(C)CCC3[C@@]1(C)C2=O (some centres not stated)
Assigned Category: Y
--
Compound: O=c1[nH]cnc2c1nc(Cl)n2C1OC(CO)C(O)C1O (configuration not stated)
Assigned Category: N

Continue with the compound presented below.
Asked: Short answer needed: outcome of this test for COC(=O)CC1C(C)(C)C(O)C2CC3=C4C=C(OC)OC(c5ccoc5)[C@]4(C)CCC3[C@@]1(C)C2=O (some centres not stated) ?
Given back: Y

###

Biological target: Rap guanine nucleotide exchange factor 3 (Homo sapiens)
Test: Confirmatory qHTS for antagonist of cAMP-regulated guanine nucleotide exchange factor 3 (EPAC1) (AID 1645880); note: nearly all actives have a fitted effect of over 55% in size
Details: EPAC1 Rap1B-BODIPY-GDP exchange, fluorescence; series mostly up to 115 µM
Inconclusive results are not listed. Active and inactive are the calls of the source. The call rests on the fitted dose curve; in most records, active means well fitted inhibition curve with a large enough effect; inconclusive means small, poorly fitted or top-dose-only effect; inactive means no such curve, though single readings can be large or run the other way.
Choose one outcome from this list and give only that: true (1) for active, false (0) for inactive

Compound: C=CCOc1ccc(/C=C2\SC(=S)N(NS(=O)(=O)c3ccccc3)C2=O)cc1
Assigned Category: true (1)

Continue with the compound presented below.
Asked: Short answer needed: outcome of this test for `Clc1c(Cl)c(Cl)c2n[nH]nc2c1Cl` ?
Given back: true (1)

###

Assay: qHTS Assay for Lipid Storage Modulators (AID 1519); for activity change, negative = inhibition: % is set by controls: 0 for no effect and ±100 for the full control effect
Settings: Drosophila S3 cells, BODIPY lipid droplet/cell ratio, laser cytometry; at 57.5 µM (top of the series); cells loaded with oleic acid
Records with an inconclusive call do not appear.
For each of the compounds below, state its activity change, negative = inhibition.
Give bare numbers, in %.

The following compounds have reported results that may help.
Compound: COc1ccc2c(C)cc(=O)oc2c1
activity change, negative = inhibition / %: 8.28
--
Compound: COc1c(O)cc(O)cc1O
activity change, negative = inhibition / %: -1.6
--
Compound: C[C@@]12C=CC(=O)C=C1CCC1C3CC(O)[C@@](O)(C(=O)CO)[C@]3(C)CC(O)[C@]12F (some centres undefined)
activity change, negative = inhibition / %: 10.8

Now for a further compound.
Asked: Give its activity change, negative = inhibition value. Item: `O=C(O)CCCC[C@@H]1SC[C@H]2NC(=O)N[C@@H]12`
Given back: 6.17

###

Target: Rap guanine nucleotide exchange factor 3 (Homo sapiens) (UniProt O95398)
Sequence (O95398 whole entry, looked up): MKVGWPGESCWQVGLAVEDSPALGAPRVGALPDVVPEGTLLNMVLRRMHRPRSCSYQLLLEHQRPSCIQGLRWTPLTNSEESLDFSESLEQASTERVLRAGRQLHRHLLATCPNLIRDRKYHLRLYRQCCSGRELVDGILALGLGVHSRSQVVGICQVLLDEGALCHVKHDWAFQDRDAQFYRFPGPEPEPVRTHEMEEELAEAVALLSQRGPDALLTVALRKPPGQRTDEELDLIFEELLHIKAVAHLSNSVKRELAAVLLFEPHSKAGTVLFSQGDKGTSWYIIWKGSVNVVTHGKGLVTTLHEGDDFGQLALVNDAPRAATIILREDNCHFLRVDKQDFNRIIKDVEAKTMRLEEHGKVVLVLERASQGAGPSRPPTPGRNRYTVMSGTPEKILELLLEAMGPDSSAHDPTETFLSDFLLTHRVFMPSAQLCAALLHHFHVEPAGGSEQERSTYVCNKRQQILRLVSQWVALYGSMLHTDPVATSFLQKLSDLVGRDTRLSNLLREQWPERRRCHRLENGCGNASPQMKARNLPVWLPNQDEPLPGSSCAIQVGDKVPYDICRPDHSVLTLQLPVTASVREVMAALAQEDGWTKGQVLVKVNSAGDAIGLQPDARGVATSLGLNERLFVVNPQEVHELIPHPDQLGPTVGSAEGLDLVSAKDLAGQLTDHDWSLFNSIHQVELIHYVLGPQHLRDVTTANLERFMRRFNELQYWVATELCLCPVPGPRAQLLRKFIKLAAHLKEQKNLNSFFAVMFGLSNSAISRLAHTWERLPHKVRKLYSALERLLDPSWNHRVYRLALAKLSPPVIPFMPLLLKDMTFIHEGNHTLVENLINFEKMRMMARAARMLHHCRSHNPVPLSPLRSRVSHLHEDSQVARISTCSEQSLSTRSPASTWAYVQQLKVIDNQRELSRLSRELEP
Assay: Confirmatory qHTS for antagonist of cAMP-regulated guanine nucleotide exchange factor 3 (EPAC1) (AID 1645880); note: nearly all actives have a fitted effect of over 55% in size
Conditions: EPAC1 Rap1B-BODIPY-GDP exchange, fluorescence; series mostly up to 115 µM
Results filed as inconclusive are left out. Active and inactive are the calls of the source. The call rests on the fitted dose curve; in most records, active means well fitted inhibition curve with a large enough effect; inconclusive means small, poorly fitted or top-dose-only effect; inactive means no such curve, though single readings can be large or run the other way.
Choose one outcome from this list and give only that: active, inactive

Use these answered entries as a reference point.
Molecule: CC(C)c1ccc(NC(=O)c2ccc(Cn3nc(N4CCN(c5ccccc5)CC4)ccc3=O)o2)cc1
Assigned Category: active
--
Molecule: O=C1CC(Cc2ccccc2)C(=O)N1CCc1ccc2c(c1)OCO2 (stereo not drawn)
Assigned Category: inactive
--
Molecule: CC(=O)NC(c1ccc2ccccc2c1)c1ccc2cccnc2c1O (stereo not drawn)
Assigned Category: inactive

Asked: Short answer needed: outcome of this test for `Cc1cc(C)c2c(CN3CCCCC3)cc(=O)oc2c1` ?
Given back: inactive

Asked: Short answer needed: outcome of this test for Fc1ccc(C(Nc2ccccn2)c2c[nH]c3ccccc23)cc1 (stereo not drawn) ?
Given back: inactive

###

Molecular target: Rap guanine nucleotide exchange factor 3 (Homo sapiens) (UniProt O95398)
Assay: Confirmatory qHTS for antagonist of cAMP-regulated guanine nucleotide exchange factor 3 (EPAC1) (AID 1645880); note: nearly all actives have a fitted effect of over 55% in size
Details: EPAC1 Rap1B-BODIPY-GDP exchange, fluorescence; series mostly up to 115 µM
Results filed as inconclusive are left out. Active and inactive are the calls of the source. Calls come from the whole dose curve; as a rule, active = well fitted inhibition curve with a large enough effect; inconclusive = small, poorly fitted or top-dose-only effect; inactive = no such curve, though single readings can be large or run the other way.
Choose one outcome from this list and give only that: active, inactive

Use these answered entries as a reference point.
Compound: Cc1ccc(N2NC(=O)/C(=C\c3cc4c(cc3[N+](=O)[O-])OCO4)C2=O)cc1C
Assigned Category: active
//
Compound: CCc1noc(C)c1C(=O)N1CCCSC1=Nc1ccccc1C(C)C
Assigned Category: inactive
//
Compound: Cn1cc(C(c2ccccc2)c2ccc(Cl)s2)c2ccccc21 (stereo unspecified)
Assigned Category: inactive
//
Compound: Cc1ccc(NC(=O)c2c(NC(=O)C(F)(F)F)sc3c2CCCCC3)cc1
Assigned Category: active
//
Compound: COc1ccc(OC)c(/C=C2\SC(=S)N(NS(=O)(=O)c3ccccc3)C2=O)c1
Assigned Category: active
//
Compound: C=CCc1c(C)c(C#N)c2nc3ccccc3n2c1N1CCCCC1
Assigned Category: inactive
//
Compound: Cc1ccc(NC(=O)c2ccc(S(=O)(=O)N3CCCCCC3)cc2)nc1
Assigned Category: inactive
//
Compound: COc1ccc(CC(=O)Nc2nc(-c3cccnc3)cs2)cc1
Assigned Category: inactive
//
Compound: O=C(O)c1cccc(NC(=O)c2cn(-c3ccccc3)nc2-c2cc3ccccc3o2)c1
Assigned Category: active
//
Compound: CCc1ccc(/C=C2/SC(=S)N(CCCC(=O)Nc3ccccc3C(=O)O)C2=O)cc1
Assigned Category: active

Asked: Short answer needed: outcome of this test for `CCN(CC)c1nc(C#N)cc(-c2ccc(OC)cc2)n1` ?
Given back: inactive

Asked: Short answer needed: outcome of this test for `CCOc1ccc(CCNC(=O)c2ccc3c(=O)[nH]c4c(C(=O)NC(C)C)sc(=S)n4c3c2)cc1` ?
Given back: active

Asked: Short answer needed: outcome of this test for CC1(Cc2ccc(Cl)cc2)C(=O)Nc2ccc(-c3cccnc3)cc21 (stereo unspecified) ?
Given back: inactive

Asked: Short answer needed: outcome of this test for `Cc1ccc(-n2nc(C(=O)N(C)c3ccc(C)c(C)c3)c3c4ccccc4n(C)c3c2=O)cc1` ?
Given back: inactive

Asked: Short answer needed: outcome of this test for `O=C1NC(=Nc2ccccc2)S/C1=C\C=C\c1ccco1` ?
Given back: active

Asked: Short answer needed: outcome of this test for CC(Oc1ccccc1)C(=O)Nc1nnc(S(=O)(=O)N2CCCCC2)s1 (stereo unspecified) ?
Given back: inactive
